# ETB receptor (Cavia porcellus): Ki values follow
# Sequence (H0VTF3 27-415): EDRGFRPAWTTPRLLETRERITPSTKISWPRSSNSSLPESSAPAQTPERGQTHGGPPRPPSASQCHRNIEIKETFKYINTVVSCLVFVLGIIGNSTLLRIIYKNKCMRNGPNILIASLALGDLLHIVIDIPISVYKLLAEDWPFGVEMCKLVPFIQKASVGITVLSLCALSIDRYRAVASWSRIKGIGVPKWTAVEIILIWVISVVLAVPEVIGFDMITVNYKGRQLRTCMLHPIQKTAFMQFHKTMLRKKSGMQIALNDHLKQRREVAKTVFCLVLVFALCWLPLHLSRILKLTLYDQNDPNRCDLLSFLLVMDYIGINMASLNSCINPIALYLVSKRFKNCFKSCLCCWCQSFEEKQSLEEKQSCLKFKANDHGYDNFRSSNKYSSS
Answers are plain numbers, in nM.

1) COc1cc(OC)nc(OC(C(=O)O)C(C)(c2ccccc2)c2ccccc2)n1 (stereo not drawn)    950
2) COc1cc(C)nc(OC(C(=O)O)C(CO)(c2ccccc2)c2ccccc2)n1 (stereo not drawn)    445

Please examine the following record next.
What Ki value was documented for this compound, Cc1cc(C)nc(OC(C(=O)O)C(C)(c2ccccc2)c2ccccc2)n1 (racemic) ?
325

###

TARGET SYSTEM: cloned human ETA receptor (Homo sapiens, UniProt P25101)
Construct: expressed in transfected cells; host or cells: CHO cells
Sequence (P25101 21-427): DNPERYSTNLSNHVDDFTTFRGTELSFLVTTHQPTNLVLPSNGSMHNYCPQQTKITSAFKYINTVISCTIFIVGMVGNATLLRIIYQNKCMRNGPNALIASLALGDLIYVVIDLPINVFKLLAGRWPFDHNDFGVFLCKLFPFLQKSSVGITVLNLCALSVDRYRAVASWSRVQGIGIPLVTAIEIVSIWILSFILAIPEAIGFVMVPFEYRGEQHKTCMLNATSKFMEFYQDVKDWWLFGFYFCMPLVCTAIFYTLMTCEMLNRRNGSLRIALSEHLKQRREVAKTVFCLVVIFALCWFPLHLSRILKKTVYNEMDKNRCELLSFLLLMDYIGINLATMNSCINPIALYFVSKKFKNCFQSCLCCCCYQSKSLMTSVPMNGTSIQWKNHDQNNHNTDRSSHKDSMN
TEST NAME: ETA receptor binding assay ([125I]-ET1, membranes of ETA receptor-expressing CHO cells)
TEST CONTEXT: CHO cell membranes, 25 pM [125I]-ET1, 25° C.
OBSERVED PROPERTY: Ki (nM)
One number for each entry, in nM.

1. CCC(c1ccccc1)(c1ccccc1)C(Oc1nc(C)cc(C)n1)C(=O)O (stereo not shown)    4
2. CCC(c1ccccc1)(c1ccccc1)C(Oc1nc(OC)cc(OC)n1)C(=O)O (stereo not shown)    20

Record Ki for all entries; do not skip any.
1. COc1cc(C)nc(OC(C(=O)O)C(CO)(c2ccccc2)c2ccccc2)n1 (stereo not shown)
2. COc1cc(C)nc(OC(C(=O)O)C(C)(c2ccccc2)c2ccccc2)n1 (stereo not shown)

1. 5
2. 3.5
